Recorded pIC50, one value per entry.
System: NCI-H157
Experiment: Cytotoxicity against human NCI-H157 cells by sulforhodamine B assay
Type: functional, cell-based
The read-out pIC50 is expressed as -log10 of concentration in moles per litre.

Consider the reported pIC50 for these molecules:
molecule	metric	readout_value
COc1ccc(OCc2nn3c(-c4cccnc4)nnc3s2)cc1	pIC50	5.71
c1cncc(-c2nnc3sc(-c4ccoc4)nn23)c1	pIC50	5.47
c1cncc(-c2nnc3sc(-c4ccco4)nn23)c1	pIC50	5.50
Clc1ccc(C2=Nn3c(nnc3-c3cccnc3)SC2)cc1	pIC50	5.40
Fc1ccc(Cc2nn3c(-c4cccnc4)nnc3s2)cc1	pIC50	5.78

The measured pIC50 associated with c1ccc(-c2ccc(C3=Nn4c(nnc4-c4cccnc4)SC3)cc2)cc1 reads 5.36

The measured pIC50 associated with CC[C@]1(O)C[C@H]2CN(CCc3c([nH]c4ccccc34)[C@@](C(=O)OC)(c3cc4c(cc3OC)N(C=O)[C@H]3[C@@](O)(C(=O)OC)[C@H](OC(C)=O)[C@]5(CC)C=CCN6CC[C@]43[C@@H]65)C2)C1 [VINCRISTINE] reads 5.99

The measured pIC50 associated with c1cncc(-c2nnc3n2N=C(c2cccc4ccccc24)CS3)c1 reads 5.27

The measured pIC50 associated with Cc1ccc(OCc2nn3c(-c4cccnc4)nnc3s2)cc1 reads 5.53

The measured pIC50 associated with Fc1ccc(-c2nn3c(-c4cccnc4)nnc3s2)cc1Cl reads 5.97

The measured pIC50 associated with Oc1ccccc1OCc1nn2c(-c3cccnc3)nnc2s1 reads 5.44
